Test system: Rattus norvegicus
ASSAY_EXPLANATION: Antihyperglycemic activity in Rattus norvegicus Wistar albino (rat) assessed as reduction in blood glucose level at 20 mg/kg, po administered 30 min before 3 g/kg, po glucose challenge by oral glucose tolerance test
Type: functional
MEASURED_PARAMETER: inhibition in vivo at 20 mg/kg (%)
Field: numeric (%). Do not append units.

Worked cases, inhibition in vivo at 20 mg/kg given:
O=C1CCC(c2ccccc2)=NN1c1ccc(S(=O)(=O)NC(=S)NCc2ccccc2)cc1 ... 26.6
O=C1CCC(c2ccc(-c3ccccc3)cc2)=NN1c1ccc(S(=O)(=O)NC(=S)NCc2ccccc2)cc1 ... 24.8
CCCNC(=S)NS(=O)(=O)c1ccc(N2N=C(c3ccc(Cl)cc3)CCC2=O)cc1 ... 32.7

Lookup result for O=C1CCC(c2ccc(Cl)cc2)=NN1c1ccc(S(=O)(=O)NC(=S)Nc2ccccc2)cc1 ; measured inhibition in vivo at 20 mg/kg: 4.7

Value of measured inhibition in vivo at 20 mg/kg for the entry Cc1ccc(C2=NN(c3ccc(S(=O)(=O)NC(=S)NCc4ccccc4)cc3)C(=O)CC2)cc1 : 21.3

Reported inhibition in vivo at 20 mg/kg for CCc1ccc(C2=NN(c3ccc(S(=O)(=O)NC(=S)NCc4ccccc4)cc3)C(=O)CC2)cc1 was 3.8

Quick note, inhibition in vivo at 20 mg/kg for CCCNC(=S)NS(=O)(=O)c1ccc(N2N=C(c3ccc(C)cc3)CCC2=O)cc1 landed at 30.9

inhibition in vivo at 20 mg/kg recorded for this compound, COc1ccc(C2=NN(c3ccc(S(=O)(=O)NC(=S)NCc4ccccc4)cc3)C(=O)CC2)cc1 , is 5.6

Short answer for CCCNC(=S)NS(=O)(=O)c1ccc(N2N=C(c3ccc(OC)cc3)CCC2=O)cc1 : inhibition in vivo at 20 mg/kg was 37.1

Briefly, inhibition in vivo at 20 mg/kg measured for O=C1CCC(c2ccc(Oc3ccccc3)cc2)=NN1c1ccc(S(=O)(=O)NC(=S)NCc2ccccc2)cc1 : 3

The reported value for O=C1CCC(c2ccc(Cl)cc2)=NN1c1ccc(S(=O)(=O)NC(=S)NCc2ccccc2)cc1 in terms of inhibition in vivo at 20 mg/kg is 38.8
